Data origin: patent US10513521B2

Target: ALK6 (Homo sapiens, UniProt O00238)
Sequence (O00238 14-502): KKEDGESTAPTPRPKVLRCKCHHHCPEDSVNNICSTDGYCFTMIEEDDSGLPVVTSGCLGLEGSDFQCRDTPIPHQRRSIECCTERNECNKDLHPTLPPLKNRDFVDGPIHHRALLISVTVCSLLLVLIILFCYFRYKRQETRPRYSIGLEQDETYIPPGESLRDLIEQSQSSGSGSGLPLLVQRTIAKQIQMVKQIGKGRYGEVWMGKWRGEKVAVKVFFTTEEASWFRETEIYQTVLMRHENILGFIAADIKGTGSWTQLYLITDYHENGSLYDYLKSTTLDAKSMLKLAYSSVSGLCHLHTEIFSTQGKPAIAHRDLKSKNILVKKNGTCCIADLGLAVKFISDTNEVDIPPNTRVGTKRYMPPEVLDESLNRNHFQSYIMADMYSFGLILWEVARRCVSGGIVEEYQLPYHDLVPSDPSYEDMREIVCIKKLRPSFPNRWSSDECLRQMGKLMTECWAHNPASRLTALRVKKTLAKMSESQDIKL
Experiment: TR-FRET enzymatic ALK kinase assay, ALK6
RESULT_TYPE: IC50 (µM)

In [3]: df
Out[3]:
                              sample_smiles                            tested_on  meas_value
0  NC(=O)c1ccc(-c2cnn3cc(-c4ccc(N5C[C@@H]6C[C@H]5CN6)cc4)cnc23)c2ccccc12  ALK6 (Homo sapiens, UniProt O00238)        2.06

(A) CN(C)C(=O)c1cccc2c(-c3cnn4cc(-c5ccc(N6CCNCC6)cc5)cnc34)cccc12
(B) C[S+](=O)([O-])c1cccc(-c2cnn3cc(-c4ccc(OC5(CN6CCCCC6)COC5)cc4)cnc23)c1
(C) CC(C)S(=O)(=O)c1cccc(-c2cnn3cc(-c4ccc(CCN5CCCCC5)cc4)cnc23)c1
Descending sort on IC50 required. Please respond with the labels ordered as the question requires.
A, C, B
(A: 20.7 µM, C: 9.2 µM, B: 2.9 µM)

---

Molecular target: ALK3 (Homo sapiens, UniProt P36894)
Sequence (P36894 24-532): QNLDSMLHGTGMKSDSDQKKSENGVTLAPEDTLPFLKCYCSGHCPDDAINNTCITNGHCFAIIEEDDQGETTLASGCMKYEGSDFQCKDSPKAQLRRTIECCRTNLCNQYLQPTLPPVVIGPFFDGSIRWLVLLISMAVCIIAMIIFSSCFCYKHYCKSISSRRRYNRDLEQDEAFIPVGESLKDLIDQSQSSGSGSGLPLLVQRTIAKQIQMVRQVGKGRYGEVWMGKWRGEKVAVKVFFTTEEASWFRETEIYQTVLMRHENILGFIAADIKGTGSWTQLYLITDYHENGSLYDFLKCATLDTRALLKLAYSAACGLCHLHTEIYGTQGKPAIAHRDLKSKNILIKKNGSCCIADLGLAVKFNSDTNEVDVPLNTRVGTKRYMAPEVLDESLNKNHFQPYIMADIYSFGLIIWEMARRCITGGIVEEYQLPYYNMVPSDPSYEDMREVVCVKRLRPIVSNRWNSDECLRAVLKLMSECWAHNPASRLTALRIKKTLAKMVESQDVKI
Assay: TR-FRET enzymatic ALK kinase assay, ALK3
pIC50: −log10 of the molar value.
RESULT_TYPE: pIC50

>>> print(df.to_string())
                              sample_smiles  result_type  meas_value
0  C[S+](=O)([O-])c1cccc(-c2cnn3cc(-c4ccc(OC5(CN6CCC7(CC6)CNC7)CC5)cc4)cnc23)c1        pIC50        5.64
1  C[C@H](O)c1cccc(-c2cnn3cc(-c4ccc(OC5(CN6C7CCC6CC7)CC5)cc4)cnc23)c1        pIC50        5.60

(A) C[C@@H]1CNC[C@H](C)N1c1ccc(-c2cnc3c(-c4ccc(F)c(-c5nnn[nH]5)c4)cnn3c2)cc1
(B) C[C@@H]1CNC[C@H](C)N1c1ccc(-c2cnc3c(-c4cccc(S(C)(=O)=O)c4)cnn3c2)cc1
Response body: label of entry with the larger pIC50; valid values A , B . // respond with label for picked entry
A

---

Molecular target: ALK1 (Homo sapiens, UniProt P37023)
Sequence (P37023 22-503): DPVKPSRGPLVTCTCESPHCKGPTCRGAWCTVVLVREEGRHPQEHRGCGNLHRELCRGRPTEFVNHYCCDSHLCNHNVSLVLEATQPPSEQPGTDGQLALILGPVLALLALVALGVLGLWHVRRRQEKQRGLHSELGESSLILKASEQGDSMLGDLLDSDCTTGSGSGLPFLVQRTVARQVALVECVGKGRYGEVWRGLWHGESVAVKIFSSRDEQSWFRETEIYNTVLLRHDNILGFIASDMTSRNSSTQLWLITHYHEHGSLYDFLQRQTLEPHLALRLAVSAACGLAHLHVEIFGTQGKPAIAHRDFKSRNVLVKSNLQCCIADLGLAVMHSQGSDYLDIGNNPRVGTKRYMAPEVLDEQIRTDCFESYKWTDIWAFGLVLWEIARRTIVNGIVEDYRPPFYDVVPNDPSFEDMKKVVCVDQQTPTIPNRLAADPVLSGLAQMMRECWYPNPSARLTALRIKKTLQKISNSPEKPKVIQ
Assay: TR-FRET enzymatic ALK kinase assay, ALK1
RESULT_TYPE: IC50 (µM)

Consider the worked cases shown below.
                                   molecule  measurement_units  meas_value
0  CS(=O)(=O)c1cccc(-c2cnn3cc(-c4ccc(C(F)(F)CN5CCNCC5)cc4)cnc23)c1 [Compound 122]                 µM        0.37
1  CS(=O)(=O)c1cccc(-c2cnn3cc(-c4ccc(C5CCNC5)cc4)cnc23)c1 (stereo not drawn) [Compound 129]                 µM        0.49
2  CS(=O)(=O)c1cccc(-c2cnn3cc(-c4ccc(CCN5CCC(O)CC5)cc4)cnc23)c1 [Compound 140]                 µM        0.62
3  c1cc(-c2nn[nH]n2)cc(-c2cnn3cc(-c4ccc(CCN5CCCCC5)cc4)cnc23)c1 [Compound 89]                 µM         7.1
4  Cc1cc(S(N)(=O)=O)ccc1-c1cnn2cc(-c3ccc(N4[C@H](C)CNC[C@@H]4C)cc3)cnc12 [Compound 36]                 µM        9.48

(I) NC(c1cccc(-c2cnn3cc(-c4ccc(OC5(CN6CCC(O)C6)CC5)cc4)cnc23)c1)C(F)(F)F (stereo not drawn) [Compound 182]
(II) CC(O)c1cccc(-c2cnn3cc(-c4ccc(CCN5CCCC(O)C5)cc4)cnc23)c1 (stereo not drawn) [Compound 150]
(III) C[C@@H](O)c1cccc(-c2cnn3cc(-c4ccc(OCCN5CCCCC5)cc4)cnc23)c1 [Compound 149]
(IV) O=[S+]([O-])(c1cccc(-c2cnn3cc(-c4ccc(CCN5CCCCC5)cc4)cnc23)c1)C1CC1 [Compound 112]
(V) CS(=O)(=O)c1cccc(-c2cnn3cc(-c4ccc(C5CCNCC5)cc4)cnc23)c1 [Compound 94]
Descending sort on IC50 required. Please respond with the labels ordered as the question requires.
III, I, IV, II, V
(III: 4.5 µM, I: 2 µM, IV: 1.3 µM, II: 0.71 µM, V: 0.22 µM)

(I) NC(c1cccc(-c2cnn3cc(-c4ccc(OC5(CN6CCOCC6)CC5)cc4)cnc23)c1)C(F)(F)F (stereo not drawn) [Compound 181]
(II) C[C@@H](O)c1cccc(-c2cnn3cc(-c4ccc(OC5(CN6CCCCC6)CC5)cc4)cnc23)c1 [Compound 152]
Field: lower IC50 | Options: I / II // respond with label for picked entry
II
(II: 0.59 µM, I: 2 µM)

(P) CCS(=O)(=O)c1cccc(-c2cnn3cc(-c4ccc(CCN5CCCCC5)cc4)cnc23)c1 [Compound 106]
(Q) CNS(=O)(=O)c1cccc2c(-c3cnn4cc(-c5ccc(N6[C@H](C)CNC[C@@H]6C)cc5)cnc34)cccc12 [Compound 41]
(R) NC(=O)c1cccc2c(-c3cnn4cc(-c5ccc(N6CCNCC6)cc5)cnc34)cccc12 [Compound 6]
Ordering: ascending IC50. Please respond with the labels ordered as the question requires.
R, P, Q
(R: 0.031 µM, P: 0.22 µM, Q: 0.54 µM)

(P) CS(=O)(=O)c1cccc(-c2cnn3cc(-c4ccc(C(F)(F)CN5CCOCC5)cc4)cnc23)c1 [Compound 121]
(Q) CS(=O)(=O)c1cccc(-c2cnn3cc(-c4ccc(CN5CCCCC5)cc4)cnc23)c1 [Compound 123]
(R) NC(c1cccc(-c2cnn3cc(-c4ccc(OC5(CN6CCC(O)CC6)CC5)cc4)cnc23)c1)C(F)(F)F (stereo not drawn) [Compound 180]
Descending sort on IC50 required. Please respond with the labels ordered as the question requires.
R, P, Q

---

Biological target: ALK3 (Homo sapiens, UniProt P36894)
Test: TR-FRET enzymatic ALK kinase assay, ALK3
pIC50: −log10 of the molar value.
RESULT_TYPE: pIC50

Consider the worked cases shown below.
>>> df
                                   compound  meas_value
0  CS(=O)(=O)c1cccc(-c2cnn3cc(-c4ccc(CCN5CCCC5)cc4)cnc23)c1 [Compound 128]        5.20
1  C[C@@H]1CNC[C@H](C)N1c1ccc(-c2cnc3c(-c4ccc(C#N)c5ccccc45)cnn3c2)cc1 [Compound 19]        5.96
2  C[C@@H]1CNC[C@H](C)N1c1ccc(-c2cnc3c(-c4cccc(CCO)c4)cnn3c2)cc1 [Compound 70]        5.55

(1) C[C@@H]1CNC[C@H](C)N1c1ccc(-c2cnc3c(-c4cccc5c(-c6nn[nH]n6)cccc45)cnn3c2)cc1 [Compound 28]
(2) C[C@@H](O)c1cccc(-c2cnn3cc(-c4ccc(CCN5CCCC(O)C5)cc4)cnc23)c1 (stereo partly drawn) [Compound 157]
(3) CC(=O)c1cccc2c(-c3cnn4cc(-c5ccc(N6[C@H](C)CNC[C@@H]6C)cc5)cnc34)cccc12 [Compound 24]
Ordering: ascending pIC50. Please respond with the labels ordered as the question requires.
2, 1, 3
(2: 5.23, 1: 6.77, 3: 7.23)

(A) NC(c1cccc(-c2cnn3cc(-c4ccc(OC5(CN6CCC(O)CC6)CC5)cc4)cnc23)c1)C(F)(F)F (stereo not drawn) [Compound 180]
(B) C[C@@H](O)c1cccc(-c2cnn3cc(-c4ccc(CCN5CCC(O)CC5)cc4)cnc23)c1 [Compound 159]
(C) CC(O)c1cccc(-c2cnn3cc(-c4ccc(CN5CCCC5)cc4)cnc23)c1 (stereo not drawn) [Compound 165]
(D) C[C@@H]1CNC[C@H](C)N1c1ccc(-c2cnc3c(-c4cccc5c(C(N)=O)cccc45)cnn3c2)cc1 [Compound 10]
(E) CC(O)c1cccc(-c2cnn3cc(-c4ccc(OC5(CN6CCCC6)CC5)cc4)cnc23)c1 (stereo not drawn) [Compound 167]
Ordering: ascending pIC50. Please respond with the labels ordered as the question requires.
B, A, E, C, D
(B: 5.21, A: 5.42, E: 5.96, C: 6.85, D: 7.74)

---

Biological target: ALK2 (Mus musculus)
Construct: The C2C12 cell line was selected for the measurement of ALK2 activity using BMP6 as the agonist; host or cells: C2C12
Sequence (P37172 21-509): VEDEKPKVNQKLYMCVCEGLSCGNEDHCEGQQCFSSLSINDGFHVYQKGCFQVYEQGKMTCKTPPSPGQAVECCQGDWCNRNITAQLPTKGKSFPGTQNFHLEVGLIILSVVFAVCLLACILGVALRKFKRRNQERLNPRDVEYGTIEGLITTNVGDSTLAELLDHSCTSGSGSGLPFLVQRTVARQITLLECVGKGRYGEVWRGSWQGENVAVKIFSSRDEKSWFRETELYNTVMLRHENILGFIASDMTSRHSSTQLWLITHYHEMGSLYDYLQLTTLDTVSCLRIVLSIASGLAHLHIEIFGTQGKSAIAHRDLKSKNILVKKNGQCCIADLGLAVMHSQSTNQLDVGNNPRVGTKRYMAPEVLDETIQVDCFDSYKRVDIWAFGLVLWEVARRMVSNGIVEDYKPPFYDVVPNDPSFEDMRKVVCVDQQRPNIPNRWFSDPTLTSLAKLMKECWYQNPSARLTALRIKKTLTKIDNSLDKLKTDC
Test: HTRF pSMAD1 cell-based ALK2 assay (C2C12 cells, BMP6 as agonist)
Settings: cell-based assay, BMP6; read-out: Cell IC50 BMP6
RESULT_TYPE: IC50 (nM)

>>> print(df.to_string())
                              sample_smiles  result_type  measurement_units  meas_value
0  O=[S+]([O-])(c1cccc(-c2cnn3cc(-c4ccc(C5CCNCC5)cc4)cnc23)c1)C1CC1         IC50                 nM         710
1  NS(=O)(=O)c1ccc(-c2cnn3cc(-c4ccc(C5(O)CCNCC5)cc4)cnc23)c2ccccc12         IC50                 nM       10000
2  N=C(N)c1ccc(-c2cnn3cc(-c4ccc(N5CCNCC5)cc4)cnc23)c2ccccc12         IC50                 nM         890
3  C[C@@H]1CNC[C@H](C)N1c1ccc(-c2cnc3c(-c4cc(C#N)cc(S(N)(=O)=O)c4)cnn3c2)cc1         IC50                 nM        8930

(1) O=C(O)c1ccc(-c2cnn3cc(-c4ccc(N5CCNCC5)cc4)cnc23)c2ccccc12
(2) CS(=O)(=O)c1cccc(-c2cnn3cc(-c4ccc(C(F)(F)CN5CCNCC5)cc4)cnc23)c1
Response body: label of entry with the larger IC50; valid values 1 , 2 . // respond with label for picked entry
1
